Could you please report measured Fbg for the items listed next?
Species: Rattus norvegicus
Experiment: Open TG-GATES - Regimen: Daily Repeat
Type: toxicity, organism-based, Sprague-Dawley
Design: regimen Daily Repeat, gender Male, age 6 weeks
Details: in vivo, po, 100 mg/kg, […], tissue Blood, route gavage, dose level Low, time 7 day
Dear colleague, please return just the value in mg/dL, with no unit written.

Input CC(S)C(=O)NCC(=O)O (centres undefined) [TIOPRONIN] , output reported Fbg.
305.8

Input CCCCNC(=O)NS(=O)(=O)c1ccc(C)cc1 [TOLBUTAMIDE] , output reported Fbg.
303.2

Input CC(=O)[C@@]1(O)CC[C@H]2[C@@H]3C=C(Cl)C4=CC(=O)CC[C@]4(C)[C@H]3CC[C@@]21C [CHLORMADINONE] , output reported Fbg.
343.2

Input O=C(O)c1ccccc1Nc1ccccc1 [FENAMIC ACID] , output reported Fbg.
288.2
